Test: Quantitative High-Throughput drug screen in 47 multiple myeloma cell lines against the NCATS MIPE library collection: NCIH929_DSMZ cell viability assay (AID 1918978); further: nearly all actives have a fitted effect of over 35% in size
Conditions: NCI-H929 myeloma viability, CellTiter-Glo ATP, 48 h; series mostly up to 45.8 µM
Excerpt: PI: Beverly A. Mock Ph.D. Laboratory of Cancer Biology and Genetics, Center for Cancer Research, National Cancer Institute, National Institute of Health, Bethesda, Maryland […] 5; Detector; 425V; Luminescence; Viewlux PerkinElmer. […] 1. […] Briefly, the corresponding myeloma cell lines were screened in 1,536-well plates with 500 cells, 5-uL per well for inhibition of cell viability (assessed by measuring ATP levels with CellTiterGlo). […]
Inconclusive results are not listed. Active and inactive are the calls of the source. The call rests on the fitted dose curve; in most records, active means well fitted cell-killing curve with a large enough effect; inconclusive means small, poorly fitted or top-dose-only effect; inactive means no such curve, though single readings can be large or run the other way.
Classes used: 1 for active, -1 for inactive

[
  {
    "Compound smiles": "Nc1cccc(S(=O)(=O)N2CCCN(S(=O)(=O)c3ccc4c(c3)OCCO4)CC2)c1",
    "Assigned category": -1
  },
  {
    "Compound smiles": "Cc1cc2c(C(C)C)c(O)c(O)c(C=O)c2c(O)c1-c1c(C)cc2c(C(C)C)c(O)c(O)c(C=O)c2c1O",
    "Assigned category": 1
  },
  {
    "Compound smiles": "Cc1cc(-c2ccc(CC(=O)Nc3ccc(-c4cccnc4)cc3)cc2)ccn1",
    "Assigned category": 1
  },
  {
    "Compound smiles": "O=C(O)CCc1ccc(NCc2cccc(Oc3ccccc3)c2)cc1",
    "Assigned category": -1
  },
  {
    "Compound smiles": "CCOc1ccc(Cc2cc([C@@H]3O[C@H](CO)[C@@H](O)[C@H](O)[C@@H]3O)ccc2Cl)cc1",
    "Assigned category": -1
  },
  {
    "Compound smiles": "CCn1c(-c2nonc2N)nc2cnc(Oc3cccc(NC(=O)c4ccc(OCCN5CCOCC5)cc4)c3)cc21",
    "Assigned category": 1
  },
  {
    "Compound smiles": "O=C(C=Cc1ccc(/C=C/C(=O)Nc2ccc(C3=NCCN3)cc2)cc1)Nc1ccc(C2=NCCN2)cc1",
    "Assigned category": -1
  },
  {
    "Compound smiles": "Cc1cnc(NC(=O)C2=C(O)c3ccccc3S(=O)(=O)N2C)s1",
    "Assigned category": -1
  },
  {
    "Compound smiles": "COCC(=O)NCC=Cc1ccc2ncnc(Nc3ccc(Oc4ccc(C)nc4)c(C)c3)c2c1",
    "Assigned category": 1
  }
]
